Hello, the source for this data is paper PMC10114714, in case you need it.

assay protocol: Intrinsic clearance in liver microsomes, rat
Type: in vitro ADME
run conditions: pH 7.4
measured parameter: CLint scaled at 1 µM (mL/min/kg)

INSERT INTO measurements (compound, measured_parameter, units_text, reported_measurement) VALUES
  ('O=C(NCc1ccc(F)cn1)c1cc(Oc2cccnc2)c2sccc2n1 [Compound 28d]', 'CLint scaled at 1 µM', 'mL/min/kg', 314),
  ('Cc1ccc(Oc2cc(C(=O)NCc3ccc(F)cn3)nc3ccsc23)cn1 [Compound 17a]', 'CLint scaled at 1 µM', 'mL/min/kg', 152);

---

tested target: human mGlu5 (Homo sapiens)
Sequence (P41594 21-1212): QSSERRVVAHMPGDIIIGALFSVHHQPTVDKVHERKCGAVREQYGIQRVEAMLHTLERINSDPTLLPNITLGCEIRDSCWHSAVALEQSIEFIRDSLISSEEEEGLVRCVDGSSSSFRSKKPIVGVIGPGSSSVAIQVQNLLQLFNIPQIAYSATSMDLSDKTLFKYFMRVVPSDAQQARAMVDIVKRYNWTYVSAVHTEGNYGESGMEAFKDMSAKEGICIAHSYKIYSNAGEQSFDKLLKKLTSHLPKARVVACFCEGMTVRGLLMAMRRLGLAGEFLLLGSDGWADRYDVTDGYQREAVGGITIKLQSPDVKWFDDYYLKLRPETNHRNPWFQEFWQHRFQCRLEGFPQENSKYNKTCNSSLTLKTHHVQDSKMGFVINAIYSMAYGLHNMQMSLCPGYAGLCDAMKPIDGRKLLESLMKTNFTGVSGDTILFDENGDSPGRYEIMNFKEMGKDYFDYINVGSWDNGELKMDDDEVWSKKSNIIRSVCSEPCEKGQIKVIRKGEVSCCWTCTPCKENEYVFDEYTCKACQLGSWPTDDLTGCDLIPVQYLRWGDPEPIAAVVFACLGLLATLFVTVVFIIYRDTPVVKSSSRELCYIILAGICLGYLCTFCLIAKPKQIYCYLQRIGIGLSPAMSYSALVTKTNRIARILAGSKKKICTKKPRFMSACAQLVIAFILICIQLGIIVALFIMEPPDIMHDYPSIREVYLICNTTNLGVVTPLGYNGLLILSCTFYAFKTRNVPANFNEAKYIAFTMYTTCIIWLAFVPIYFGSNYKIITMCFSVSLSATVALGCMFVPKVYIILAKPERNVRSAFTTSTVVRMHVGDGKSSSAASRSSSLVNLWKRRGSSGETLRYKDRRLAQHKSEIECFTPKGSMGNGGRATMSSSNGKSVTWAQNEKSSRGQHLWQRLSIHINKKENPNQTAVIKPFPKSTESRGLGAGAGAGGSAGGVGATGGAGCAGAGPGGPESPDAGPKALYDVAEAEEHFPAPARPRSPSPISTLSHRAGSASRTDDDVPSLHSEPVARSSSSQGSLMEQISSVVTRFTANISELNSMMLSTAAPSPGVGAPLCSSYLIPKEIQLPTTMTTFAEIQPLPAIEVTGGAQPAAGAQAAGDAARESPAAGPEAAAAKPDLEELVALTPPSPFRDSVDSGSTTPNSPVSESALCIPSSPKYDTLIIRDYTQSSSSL
assay protocol: Calcium fluorescence triple-add assay, mGlu5 PAM mode
Type: cell-based
run conditions: hmGlu5 EC50 (μM), Table 2
measured parameter: EC50

INSERT INTO measurements (molecule, reported_measurement) VALUES
  ('Cc1ccc(Oc2cc(C(=O)NCc3ccc(F)cn3)nc3ccsc23)cn1 [Compound 17a]', '0.52 µM');

---

assay protocol: Brain homogenate binding, rat
Assay type: in vitro ADME
run conditions: pH 7.4, Rat fu,b
measured parameter: fraction unbound at 6 h, 1 µM

INSERT INTO assay_data (molecule, measured_parameter, reported_measurement) VALUES
  ('O=C(NCc1ccc(F)cn1)c1cc(Oc2cccnc2)c2sccc2n1 [Compound 28d]', 'fraction unbound at 6 h, 1 µM', 0.035),
  ('Cc1ccc(Oc2cc(C(=O)NCc3ccc(F)cn3)nc3ccsc23)cn1 [Compound 17a]', 'fraction unbound at 6 h, 1 µM', 0.03);

---

assay protocol: Rat IV and PO pharmacokinetics
Type: in vivo
run conditions: male, Sprague-Dawley, plasma, iv, 0.2 mg/kg
measured parameter: Vd (L/kg)

INSERT INTO assay_data (compound, units_text, reported_measurement) VALUES
  ('Cc1ccc(Oc2cc(C(=O)NCc3ccc(F)cn3)nc3ccsc23)cn1 [Compound 17a]', 'L/kg', 2.2);

---

assay protocol: Rat IV and PO pharmacokinetics
Format: in vivo
run conditions: male, Sprague-Dawley, plasma, po, 10 mg/kg
measured parameter: AUC(0-inf) (ng·h/mL)

INSERT INTO results (molecule, measured_parameter, reported_measurement) VALUES
  ('Cc1ccc(Oc2cc(C(=O)NCc3ccc(F)cn3)nc3ccsc23)cn1 [Compound 17a]', 'AUC(0-inf)', 371);

---

assay protocol: Rat IV and PO pharmacokinetics
Type: in vivo
run conditions: male, Sprague-Dawley, plasma, po, 10 mg/kg
measured parameter: Cmax (ng/mL)

INSERT INTO assay_data (compound, reported_measurement) VALUES
  ('Cc1ccc(Oc2cc(C(=O)NCc3ccc(F)cn3)nc3ccsc23)cn1 [Compound 17a]', 152);
